Parameter: T/C. Scope: all listed entries.
System: P388 leukemia ip, CD2F1 mice, survival T/C
test summary: NCI In Vivo Anticancer Drug Screen. Data for tumor model P388 Leukemia (intraperitoneal) in CD2F1 (CDF1) mice
test conditions: endpoint: median survival time; dose: 100.0 mg/kg/injection; schedule: Q01DX009 (ip); vehicle: saline with Tween-80; higher = longer survival
Method: The antitumor activity of compounds was measured in mice bearing transplantable tumors. Survival or tumor size were measured and the results are expressed as the measurement made in the treated group (T) divided by the measurement made in the vehicle treated control group (C). The tumor model used in this assay is P388 Leukemia (intraperitoneal) in CD2F1 (CDF1) mice
Toxic doses and inconclusive results are not listed.

Here is how some compounds turned out for T/C.
compound	T/C
CC(C)(OC(=O)NC(Cc1cnc[nH]1)C(=O)O)c1ccc(N=Nc2ccccc2)cc1 (centres undefined)	94 % of control
COC1/C=C/OC2(C)Oc3c(C)c(O)c4c(O)c(c(/C=N/N5C(C)CN(Cc6cccc(O)c6)CC5C)c(O)c4c3C2=O)NC(=O)/C(C)=C\C=C\C(C)C(O)C(C)C(O)C(C)C(OC(C)=O)C1C (centres undefined)	100 % of control
NNC(=O)CNC(=O)Nc1cccc(C(F)(F)F)c1	92 % of control

With those in mind, consider the next compound.
# returns recorded T/C (system: P388 leukemia ip, CD2F1 mice, survival T/C) for c1ccc(C2=NC3CCCCC3N=C2c2ccccc2)cc1 (centres undefined)
100 % of control

----------
System: P388 leukemia ip, CD2F1 mice, survival T/C
test summary: NCI In Vivo Anticancer Drug Screen. Data for tumor model P388 Leukemia (intraperitoneal) in CD2F1 (CDF1) mice
test conditions: endpoint: median survival time; dose: 120.0 mg/kg/injection; schedule: Q01DX005 (ip); vehicle: saline; higher = longer survival
Toxic doses and inconclusive results are not listed.
measured endpoint: T/C

Some solved entries appear below for comparison.
In [3]: df
Out[3]:
                                   compound            result
0  C/C(CCl)=N\NC1=NC(C)(CCl)P(=O)(NNc2ncccn2)S1 (configuration not stated)  101 % of control
1  CC(C)=CCC/C(C)=C/CC/C(C)=C/CC/C=C(\C)CC/C=C(\C)CCC[N+](C)(C)[O-]  101 % of control
2               CN(C)NP(=O)(NN(C)C)c1ccccc1  103 % of control
3         CO[C@@H]1[C@H](O)c2ccccc2N1C(C)=O  108 % of control
4  COc1ccc(C(=O)Cc2nc3nnc(N)n3nc2CC(=O)c2ccc(OC)cc2)cc1  100 % of control

What does the record list as T/C for COc1ccc2c(c1)nc(/C(C(=O)C(=O)c1ccccc1)=C(\O)c1ccccc1)c(C)[n+]2[O-] ?
104 % of control

Entry N#Cc1nc(CC(=O)c2ccncc2)c(CC(=O)c2ccncc2)nc1C#N : reported T/C = ?
106 % of control

----------
Quick reference for T/C among some molecules
System: P388 leukemia ip, CD2F1 mice, survival T/C
test summary: NCI In Vivo Anticancer Drug Screen. Data for tumor model P388 Leukemia (intraperitoneal) in CD2F1 (CDF1) mice
test conditions: endpoint: median survival time; dose: 100.0 mg/kg/injection; schedule: Q04DX003 (ip); vehicle: Klucel (hydroxypropylcellulose) (HPC); higher = longer survival
Method: The antitumor activity of compounds was measured in mice bearing transplantable tumors. Survival or tumor size were measured and the results are expressed as the measurement made in the treated group (T) divided by the measurement made in the vehicle treated control group (C). The tumor model used in this assay is P388 Leukemia (intraperitoneal) in CD2F1 (CDF1) mice
Inconclusive results and toxic doses are left out.

Recorded results for 3 molecules are shown here.
In [3]: df
Out[3]:
                                   molecule            result
0        C[N+]1(C)N=C([O-])N(c2ccccc2F)C1=O   99 % of control
1              CCSc1nc2c(N)nc(N)nc2[nH]c1=O   99 % of control
2  CCOC(=O)C12CCOC1(OC)NC(=O)C=C2C(=O)OC (centres undefined)  110 % of control

Test system P388 leukemia ip, CD2F1 mice, survival T/C; read-out T/C; what value for COC(=O)C1c2c(C)cc3n2C(C(C)=CC3)C1C(=O)OC (centres undefined) ?
99 % of control

----------
Below is a list of entries, each paired with its recorded T/C value.
Tested on: P388 leukemia ip, CD2F1 mice, survival T/C
test summary: NCI In Vivo Anticancer Drug Screen. Data for tumor model P388 Leukemia (intraperitoneal) in CD2F1 (CDF1) mice
test conditions: endpoint: median survival time; dose: 120.0 mg/kg/injection; schedule: Q01DX005 (ip); vehicle: saline with Tween-80; higher = longer survival
Protocol: The antitumor activity of compounds was measured in mice bearing transplantable tumors. Survival or tumor size were measured and the results are expressed as the measurement made in the treated group (T) divided by the measurement made in the vehicle treated control group (C). The tumor model used in this assay is P388 Leukemia (intraperitoneal) in CD2F1 (CDF1) mice
Toxic doses and inconclusive results are not listed.

Sample CCOC(=O)C1=C(C(=O)c2ccc(OC)cc2)C(c2ccc(OC)c(OC)c2)C(C(=O)c2ccc(OC)cc2)=C(C(=O)OCC)N1 — what was its T/C?
91 % of control

Need T/C, item c1ccc(Cc2nnc3n2CCC(c2ccccc2)S3)cc1 (centres undefined)
99 % of control

Which T/C is listed for CC(C)(Br)C(=O)N1CCN(C(c2ccccc2)c2ccccc2)CC1 ?
91 % of control

Given the compound CC(=O)OCC1OC(Nc2[nH]c(=O)n(C)c(=O)c2C=O)C(OC(C)=O)C(OC(C)=O)C1OC(C)=O (centres undefined) , what is its reported T/C?
109 % of control

----------
Test system: P388 leukemia ip, CD2F1 mice, survival T/C
test summary: NCI In Vivo Anticancer Drug Screen. Data for tumor model P388 Leukemia (intraperitoneal) in CD2F1 (CDF1) mice
test conditions: endpoint: median survival time; dose: 100.0 mg/kg/injection; schedule: Q01DX009 (ip); vehicle: saline
Toxic doses and inconclusive results are not listed. How the source made its calls: active means survival T/C of 150% or more; inactive means T/C below 125% in these data.
Could you please pick one outcome from this set? active, inactive

compound	label class
O=[N+]([O-])/C=C/c1cc(Br)c(O)c(Br)c1	inactive

How did this test come out for CC(=O)NCSCC(N)C(=O)O (stereo not drawn) ?
inactive

Give the logged outcome of this assay for the following compound: O=C(O)[C@@H]1[C@H](C(=O)O)[C@H](C(=O)O)C[C@@H]1C(=O)O
inactive

----------
System: P388 leukemia ip, CD2F1 mice, survival T/C
test summary: NCI In Vivo Anticancer Drug Screen. Data for tumor model P388 Leukemia (intraperitoneal) in CD2F1 (CDF1) mice
test conditions: endpoint: median survival time; dose: 200.0 mg/kg/injection; schedule: Q01DX005 (ip); vehicle: Klucel (hydroxypropylcellulose) (HPC); higher = longer survival
Toxic doses and inconclusive results are not listed.
measured endpoint: T/C

Solved cases below.
In [3]: df
Out[3]:
                              smiles_code            result
0  CC(=O)Oc1cc2c(cc1Cc1ccc3c(c1)OCO3)OCO2  100 % of control
1              C=CC(C)(C)c1cc(O)c(OC)cc1O  100 % of control

Now look at this one.
Param item = CC(=O)c1ccc2c3c(cccc13)C(=O)OC2=O ; retrieve measured T/C.
104 % of control

----------
Test system: P388 leukemia ip, CD2F1 mice, survival T/C
test summary: NCI In Vivo Anticancer Drug Screen. Data for tumor model P388 Leukemia (intraperitoneal) in CD2F1 (CDF1) mice
test conditions: endpoint: median survival time; dose: 100.0 mg/kg/injection; schedule: Q01DX001 (ip); vehicle: Klucel (hydroxypropylcellulose) (HPC); higher = longer survival
Inconclusive results and toxic doses are left out.
A collection of compounds and their measured T/C

compound	measured endpoint	result
C/C=C1/CN(C)C2Cc3c([nH]c4ccccc34)C(c3cc4[nH]c5c(c4cc3OC)CCN3CC4CC(CC)C3C5(COC(=O)c3ccc(OC)c(OC)c3)C4)CC1C2C(=O)OC (stereo unspecified)	T/C	100 % of control
CN1C(=O)/C(=c2\sc3nc4ccccc4n3c2=O)c2cc(Br)ccc21	T/C	99 % of control
C1CCC2(CC1)OCCCO2	T/C	94 % of control

Given CN(C)c1ccc(P(=O)(O)O)c(Cl)c1 , state its recorded T/C.
99 % of control

Any idea what T/C was measured for CC(=O)OCc1c(-c2ccccc2)nc2sccn12 ?
98 % of control

What value of T/C has been recorded for this entry: COC(=O)c1ccccc1N=Nc1ccc(N(CCCl)CCCl)cc1
108 % of control

----------
Each entry below lists one item and its recorded T/C value.
Tested on: P388 leukemia ip, CD2F1 mice, survival T/C
test summary: NCI In Vivo Anticancer Drug Screen. Data for tumor model P388 Leukemia (intraperitoneal) in CD2F1 (CDF1) mice
test conditions: endpoint: median survival time; dose: 100.0 mg/kg/injection; schedule: Q01DX005 (ip); vehicle: saline with Tween-80; higher = longer survival
Toxic doses and inconclusive results are not listed.

Observe how each entry below is paired with its result.
In [3]: df
Out[3]:
                              smiles_code                              study_system  measured_endpoint            result
0               Cc1nc2cc(C)n3c(C)nnc3n2n1  P388 leukemia ip, CD2F1 mice, survival T/C                T/C  100 % of control
1  COc1ccc(CSc2nn(CCC#N)c(=O)[nH]c2=O)cc1  P388 leukemia ip, CD2F1 mice, survival T/C                T/C   97 % of control

Now let's try a different one.
Any idea what T/C was measured for CCOC(=O)C(=Cc1ccc(OC)c(OC)c1)C(=O)OCC ?
102 % of control
